- System: TK-10
- assay_summary: NCI tumour cell line growth inhibition, 48 h
Active and inactive are the calls of the source. Cut-off read from the data, not from the text of the source: active = GI50 up to about 1.1 µM and inactive = higher.
metric_name: GI50

Value sought: GI50, system TK-10, item "C1CN(c2nc3c(nnc4nc(N5CCOCC5)sc43)s2)CCO1" . Result: > 100 µM (inactive)

Value sought: GI50, system TK-10, item O=C1CC2C(=O)C1C(C(=O)O)C2C(=O)O (stereo not given) . Result: > 100 µM (inactive)

Value sought: GI50, system TK-10, item CCCCCCCCCCCCCCCCCCOCC(COP(=O)([O-])OCC[N+](C)(C)C)OC (stereo not given) . Result: 19 µM (inactive)

Value sought: GI50, system TK-10, item "COC(=O)C1=NN2c3ccccc3CN([C@@H](C)c3ccccc3)C(=O)[C@H]2[C@@H]1C" . Result: 50.1 µM (inactive)

Value sought: GI50, system TK-10, item "OC(Cc1ccccc1)(Cc1ccccc1)c1ccccc1" . Result: 19.8 µM (inactive)

Value sought: GI50, system TK-10, item "Cc1cc(N(CCC#N)CCC#N)ccc1/C=C1\SC(=S)NC1=O" . Result: > 100 µM (inactive)

Value sought: GI50, system TK-10, item "O=c1nc2n(c3nsnc13)CCO2" . Result: > 100 µM (inactive)

Value sought: GI50, system TK-10, item CC(C)(C)OC(=O)NC(Cc1ccc(O)cn1)C(N)=O (stereo not given) . Result: > 100 µM (inactive)

Value sought: GI50, system TK-10, item "COC(=O)c1c(O)ccc2c1c1c(n2Cc2cc(OC)cc(OC)c2)C(=O)c2ccccc2C1" . Result: 52 µM (inactive)

Value sought: GI50, system TK-10, item "CCOC(=O)[C@@]12C(C)=CC(=O)O[C@]1(C)C[C@H]2C#N" . Result: > 100 µM (inactive)

Value sought: GI50, system TK-10, item "CCCCCCCCCCCCCC(=S)N/C=C/OC" . Result: > 100 µM (inactive)

Value sought: GI50, system TK-10, item COc1cc(C2c3cc4c(cc3[C@@H](NCCN(C)C)C3COC(=O)[C@H]23)OCO4)cc(OC)c1O (stereo not given in full) . Result: 1.69 µM (inactive)

Value sought: GI50, system TK-10, item "O=C(O)c1cnc2cc(OCc3ccccc3)ccc2c1O" . Result: 19.9 µM (inactive)

Value sought: GI50, system TK-10, item CO[C@H]1C=CO[C@@]2(C)Oc3c(C)c(O)c4c(O)c(c(CN5CCN(C)CC5)c(O)c4c3C2=O)NC(=O)/C(C)=C\C=C[C@H](C)[C@H](O)C(C)[C@@H](O)C(C)[C@H](OC(C)=O)[C@@H]1C (stereo not given in full) . Result: 49.4 µM (inactive)

Value sought: GI50, system TK-10, item "CC(C)(C)c1cc(CC2C(=O)c3ccccc3C2=O)cc(C(C)(C)C)c1O" . Result: 5.57 µM (inactive)

Value sought: GI50, system TK-10, item "O=S(=O)(O)c1ccc(Nc2ccnc3ccccc23)cc1" . Result: > 100 µM (inactive)

Value sought: GI50, system TK-10, item "CCN(C(=O)N[C@@H](C)C(=O)N[C@@H](Cc1ccccc1)C(=O)OC)c1ccccc1" . Result: > 100 µM (inactive)

Value sought: GI50, system TK-10, item "CN(CCNC(=O)c1c[nH]c2c1Cc1ccccc1-2)CCNC(=O)c1c[nH]c2c1Cc1ccccc1-2" . Result: 45.9 µM (inactive)

Value sought: GI50, system TK-10, item "COc1ccc(/C=C2\CN(C)Cc3c2nc(N)nc3-c2ccc(OC)cc2)cc1" . Result: > 100 µM (inactive)

Value sought: GI50, system TK-10, item CC(NNC(=O)c1cc[n+]([BH2-]C#N)cc1)c1cccc(F)c1 (stereo not given) . Result: > 100 µM (inactive)

* * *

- Test system: LXFL 529
- assay_summary: NCI tumour cell line growth inhibition, 48 h
Activity calls are given as the source filed them. Rule as the data show it: active = GI50 up to about 1.1 µM and inactive = higher.
Choose the fitting class; nothing outside active, inactive is accepted.

Recorded test outcome, item CCN1C(=O)N2C(OC)c3ccccc3C(Br)C2(OC)C1=O (stereo not drawn)
inactive

Recorded test outcome, item CCSC(=O)N1c2ccc(OC)cc2C=CC1C#N (stereo not drawn)
active

Recorded test outcome, item COC1OC(C)C(OC(=O)C(C)(C)C)C(OS(=O)(=O)c2ccc(C)cc2)C1OS(=O)(=O)c1ccc(C)cc1 (stereo not drawn)
inactive

* * *

- System: RPMI-8226
- assay_summary: NCI tumour cell line growth inhibition, 48 h
Active and inactive are the calls of the source. Rule as the data show it: active = GI50 up to about 1.1 µM and inactive = higher.
Choose the fitting class; nothing outside active, inactive is accepted.

Recorded test outcome, item "O=C(O)/C=C/C(=O)N1Cc2cc3ccccc3nc2C1"
inactive

Recorded test outcome, item Cc1c2c(OCC(O)CN3CCN(c4ccccc4)CC3)nn(C)c(=O)c2c(C)n1-c1ccccc1 (stereo unspecified)
inactive

Recorded test outcome, item CCN1C(=O)N2C(OC)c3ccccc3C(Br)C2(OC)C1=O (stereo unspecified)
inactive

Recorded test outcome, item "COc1ccc2c(c1OC)C(=O)C2"
inactive

Recorded test outcome, item COc1ccc(C2COc3c(ccc(OC)c3OC)C2=O)cc1OC (stereo unspecified)
inactive

Recorded test outcome, item "Cc1ccc(NC(=O)CC(=O)n2nc(C)c(/N=N/c3cccc(C)c3)c2C)cc1"
inactive

Recorded test outcome, item "O=C1c2ccc3cc(CCl)cc(O)c3c2C(=O)c2cccc(O)c21"
inactive

Recorded test outcome, item "O=C(/C=C/c1csc(-c2ccccc2)n1)NCc1ccc(C(=O)NCc2ccccc2)cc1"
inactive

Recorded test outcome, item CCCC1(CC(=O)O)OCCc2c1[nH]c1ccccc21 (stereo unspecified)
inactive

Recorded test outcome, item "CC(C)(C)c1cc(CC2C(=O)c3ccccc3C2=O)cc(C(C)(C)C)c1O"
active

Recorded test outcome, item NCCC1([N+](=O)[O-])C=CN=CC1 (stereo unspecified)
inactive

Recorded test outcome, item "Cn1c(SCc2c[nH]c3ccccc23)nnc1-c1ccc(Cl)cc1Cl"
inactive

Recorded test outcome, item CC(=O)OC1COC(N2C(=O)C(=O)c3c(C)cc(Cl)nc32)C(OC(C)=O)C1OC(C)=O (stereo unspecified)
inactive

Recorded test outcome, item "O=C1c2scnc2-c2nccc3c2c1nc1ccccc13"
inactive

Recorded test outcome, item NC(CCCCNC(=O)C(Cc1ccccc1)NC(=O)OCc1ccccc1)C(=O)NC(CCCCNC(=O)C(Cc1ccccc1)NC(=O)OCc1ccccc1)C(=O)NC(CCCCNC(=O)C(Cc1ccccc1)NC(=O)OCc1ccccc1)C(=O)NC(CCCCNC(=O)C(Cc1ccccc1)NC(=O)OCc1ccccc1)C(=O)NC(CCCCNC(=O)C(Cc1ccccc1)NC(=O)OCc1ccccc1)C(=O)NC(CCCCNC(=O)C(Cc1ccccc1)NC(=O)OCc1ccccc1)C(=O)O (stereo unspecified)
inactive

Recorded test outcome, item "CN(CCNC(=O)c1c[nH]c2c1Cc1ccccc1-2)CCNC(=O)c1c[nH]c2c1Cc1ccccc1-2"
inactive

Recorded test outcome, item "O=C1c2ccccc2S(=O)(=O)c2ccccc21"
inactive

Recorded test outcome, item "N#CCCN(c1ccc(/C=N/c2ccccc2)cc1)S(=O)(=O)c1ccccc1"
inactive

Recorded test outcome, item CC(=O)OCC1OC(N2C(C)=C(C(C)=O)C(c3ccc(Cl)cc3)C(C#N)=C2S)C(OC(C)=O)C(OC(C)=O)C1OC(C)=O (stereo unspecified)
inactive

Recorded test outcome, item N#Cc1cccc(C2ON=C(c3ccc([N+](=O)[O-])cc3)N2C23CC4CC(CC(C4)C2)C3)c1 (stereo unspecified)
inactive

Recorded test outcome, item Cc1c(N)nc(C2CC(=O)N2CC(N)C(N)=O)nc1C(=O)NC(C(=O)NC(C)C(O)C(C)C(=O)NC(C(=O)NCCc1nc(-c2nc(C(=O)NCCNCC(C)O)cs2)cs1)C(C)O)C(OC1OC(CO)C(O)C(O)C1OC1OC(CO)C(O)C(OC(N)=O)C1O)c1c[nH]cn1 (stereo unspecified)
inactive

Recorded test outcome, item CC(NNC(=O)c1cc[n+]([BH2-]C#N)cc1)c1cccc(F)c1 (stereo unspecified)
inactive

Recorded test outcome, item O=C1CC2CC=C[C@H]3c4cc5c(cc4C(=O)N1C23)OCO5 (stereo partly specified)
inactive

Recorded test outcome, item "C[C@@H]1CCC([C@@H](C)[C@H]2CC[C@H]3[C@@H]4CC[C@H]5C[C@@H](O)CC[C@]5(C)[C@H]4CC[C@]23C)=NC1"
inactive

Recorded test outcome, item O=S(=O)(c1ccccc1)C1CN2OC1(S(=O)(=O)c1ccccc1)CC2c1ccc(Br)cc1 (stereo unspecified)
inactive

Recorded test outcome, item "CC(=O)Oc1cc(OC(C)=O)c2c(C)cc(=O)oc2c1"
inactive

Recorded test outcome, item "Cc1c(C#N)c2nnn(-c3ccc(Cl)cc3)c(=O)n2c1-c1ccccc1"
active

Recorded test outcome, item "CC(=O)OCc1nc(C#N)c(N)o1"
inactive

Recorded test outcome, item "CCCCCCCCCCCCCC(=S)N/C=C/OC"
inactive

Recorded test outcome, item "C=CC[C@H]1O[Si](C(C)(C)C)(C(C)(C)C)[C@H](C)[C@H]1C"
inactive

Recorded test outcome, item CSc1nc2c(ncn2C2OC(CO)C(O)C(O)C2O)c(=O)n1C (stereo unspecified)
inactive

Recorded test outcome, item "COc1ccccc1NS(=O)(=O)c1cc(C(C)(C)C)ccc1OCCOc1ccc(C(C)(C)C)cc1S(=O)(=O)Nc1ccccc1OC"
inactive

Recorded test outcome, item "COc1ccc(OC)c(CCc2cc(OC)ccc2OC)c1"
inactive

Recorded test outcome, item "O=C(c1ccccc1)c1c(-c2ccccc2)n(-c2ccccc2)[nH]c(=O)c1=O"
inactive

Recorded test outcome, item "Oc1ccc2ccccc2c1Cc1c(O)ccc2ccccc12"
inactive

Recorded test outcome, item COC1(C)CC2N(C(=O)c3ccccc3)N=C(c3ccccc3)CC2(C)O1 (stereo unspecified)
inactive
